Recorded measurements of viability, one per entry
Tested on: SB.msgc-1
procedure.text: viability at highest tested concentration (MAXR) relative to DMSO; higher = less cytotoxic
experimental.context: SB.msgc-1 (sporadic gastric cancer)
Express your answer as a number followed by its unit.

{"molecule": "CCOC(=O)[C@@H](N)CCC(=O)N[C@@H](CSCc1ccccc1)C(=O)N[C@@H](C(=O)OCC)c1ccccc1 [Ezatiostat] (top concentration 46.0829 µM)", "viability": "41.6%"}
{"molecule": "CC(=O)Nc1nc(C)c(-c2ccc(Cl)c([S+](=O)([O-])NCCO)c2)s1 [PIK-93] (top concentration 46.0829 µM)", "viability": "43%"}
{"molecule": "O=C1C[C@@H](c2ccc(O)cc2)Oc2cc(O)cc(O)c21 [Naringenin] (top concentration 46.0829 µM)", "viability": "113%"}
{"molecule": "O=C(Nc1cc2cc[nH]c2cn1)c1ccccc1 [OAC1] (top concentration 46.0829 µM)", "viability": "20.4%"}
{"molecule": "CCOC(CN1C(=O)[C@](CC(=O)Nc2ccc(C)cc2)(NC(=O)Nc2ccc(C)cc2)c2ccccc21)OCC [AG-041R] (top concentration 46.0829 µM)", "viability": "31.1%"}

Consider now this further molecule.
-- ask Entry O=[S+]([O-])(O)c1ccc2cc(/N=N/c3cc([S+](=O)([O-])O)c4cccnc4c3O)ccc2c1 (top concentration 46.0829 µM) needs its viability filled in; supply it.
-- reply 36.3%

Provenance of the data: the supplement of paper PMC5412046
